Listed below: MIC values for each entry.
System: Staphylococcus aureus
Test: Inhibition of FtsZ in penicillin-susceptible Staphylococcus aureus ATCC 25923 assessed as lowest drug concentration causing inhibition of cell division incubated for 5 hrs by phase-contrast light microscopy
test.readout: MIC

{"structure.smiles": "CSc1ccc2c(c1)c1ccccc1c[n+]2C.[Cl-]", "assay.system": "Staphylococcus aureus", "value.observed": "128 µg/mL"}
{"structure.smiles": "COc1cccc2c3ccccc3c[n+](C)c12.[Cl-]", "assay.system": "Staphylococcus aureus", "value.observed": "> 128 µg/mL"}
{"structure.smiles": "C[n+]1cc2ccccc2c2cc(OC(F)(F)F)ccc21.[Cl-]", "assay.system": "Staphylococcus aureus", "value.observed": "128 µg/mL"}
{"structure.smiles": "Cc1cccc2c3ccccc3c[n+](C)c12.[Cl-]", "assay.system": "Staphylococcus aureus", "value.observed": "128 µg/mL"}
{"structure.smiles": "C[n+]1cc2ccccc2c2ccccc21.[Cl-]", "assay.system": "Staphylococcus aureus", "value.observed": "> 128 µg/mL"}
{"structure.smiles": "CCCCc1ccc2c(c1)c1ccccc1c[n+]2C.[Cl-]", "assay.system": "Staphylococcus aureus", "value.observed": "64 µg/mL"}

----------
Test system: Pseudomonas aeruginosa
Assay: Antibacterial activity against penicillin-susceptible Pseudomonas aeruginosa ATCC 27853 incubated for 24 hrs by tube-dilution method
Assay type: functional
Settings: ATCC 27853, 24 h
Listed below: MIC values for each entry.

{"structure.smiles": "CC(C)c1cccc2c3ccccc3c[n+](C)c12.[Cl-]", "assay.system": "Pseudomonas aeruginosa", "MIC": "> 128 µg/mL"}
{"structure.smiles": "C[n+]1cc2ccccc2c2cccc(OC(F)(F)F)c21.[Cl-]", "assay.system": "Pseudomonas aeruginosa", "MIC": "> 128 µg/mL"}
{"structure.smiles": "C[n+]1cc2ccccc2c2cc(F)ccc21.[Cl-]", "assay.system": "Pseudomonas aeruginosa", "MIC": "128 µg/mL"}
{"structure.smiles": "Cc1cc(C)c2c(c1)c1ccccc1c[n+]2C.[Cl-]", "assay.system": "Pseudomonas aeruginosa", "MIC": "> 128 µg/mL"}
{"structure.smiles": "Cc1cccc2c3ccccc3c[n+](C)c12.[Cl-]", "assay.system": "Pseudomonas aeruginosa", "MIC": "> 128 µg/mL"}
{"structure.smiles": "C[n+]1cc2ccccc2c2cc(Cl)ccc21.[Cl-]", "assay.system": "Pseudomonas aeruginosa", "MIC": "> 128 µg/mL"}
{"structure.smiles": "CCCCc1ccc2c(c1)c1ccccc1c[n+]2C.[Cl-]", "assay.system": "Pseudomonas aeruginosa", "MIC": "> 128 µg/mL"}
{"structure.smiles": "C[n+]1cc2ccccc2c2cc(C(C)(C)C)ccc21.[Cl-]", "assay.system": "Pseudomonas aeruginosa", "MIC": "> 128 µg/mL"}

----------
Test system: Staphylococcus aureus
Experiment: Antibacterial activity against […] Staphylococcus aureus ATCC 29213 incubated for 24 hrs by tube-dilution method
Type: functional
Settings: ATCC 29213, 24 h
Listed below: MIC values for each entry.
test.readout: MIC (mg/L)

{"structure.smiles": "C[n+]1cc2ccccc2c2cc(F)ccc21.[Cl-]", "qualifying.sign": ">", "value.observed": 128}
{"structure.smiles": "Cc1ccc2c(c1)c1ccccc1c[n+]2C.[Cl-]", "qualifying.sign": "=", "value.observed": 128}
{"structure.smiles": "O=C(O)c1cn(C2CC2)c2cc(N3CCNCC3)c(F)cc2c1=O", "qualifying.sign": "=", "value.observed": 4}
{"structure.smiles": "CSc1ccc2c(c1)c1ccccc1c[n+]2C.[Cl-]", "qualifying.sign": ">", "value.observed": 128}
{"structure.smiles": "C[n+]1cc2ccccc2c2cc(Cl)ccc21.[Cl-]", "qualifying.sign": ">", "value.observed": 128}
{"structure.smiles": "COc1cccc2c3ccccc3c[n+](C)c12.[Cl-]", "qualifying.sign": ">", "value.observed": 128}
{"structure.smiles": "Cc1cccc2c3ccccc3c[n+](C)c12.[Cl-]", "qualifying.sign": ">", "value.observed": 128}
{"structure.smiles": "CC(C)c1cccc2c3ccccc3c[n+](C)c12.[Cl-]", "qualifying.sign": "=", "value.observed": 64}
{"structure.smiles": "Cc1onc(-c2ccccc2)c1C(=O)N[C@@H]1C(=O)N2[C@@H]1SC(C)(C)[C@@H]2C(=O)[O-].[Na+]", "qualifying.sign": "=", "value.observed": 128}
{"structure.smiles": "Cc1cc(C)c2c(c1)c1ccccc1c[n+]2C.[Cl-]", "qualifying.sign": "=", "value.observed": 32}
{"structure.smiles": "C[n+]1cc2c3c(ccc2c2ccc4cc5c(cc4c21)OCO5)OCO3", "qualifying.sign": "=", "value.observed": 8}
{"structure.smiles": "C[n+]1cc2ccccc2c2cccc(OC(F)(F)F)c21.[Cl-]", "qualifying.sign": "=", "value.observed": 64}
{"structure.smiles": "COc1cc(OC)c2c(c1)c1ccccc1c[n+]2C.[Cl-]", "qualifying.sign": "=", "value.observed": 32}
{"structure.smiles": "C[n+]1cc2ccccc2c2cc(OC(F)(F)F)ccc21.[Cl-]", "qualifying.sign": ">", "value.observed": 128}
{"structure.smiles": "C[n+]1cc2ccccc2c2cc(C(C)(C)C)ccc21.[Cl-]", "qualifying.sign": ">", "value.observed": 128}
{"structure.smiles": "COc1ccc2c(c1)c1ccccc1c[n+]2C.[Cl-]", "qualifying.sign": "=", "value.observed": 128}
{"structure.smiles": "C[n+]1cc2ccccc2c2ccccc21.[Cl-]", "qualifying.sign": ">", "value.observed": 128}
{"structure.smiles": "CSc1cccc2c3ccccc3c[n+](C)c12.[Cl-]", "qualifying.sign": "=", "value.observed": 16}
{"structure.smiles": "CCCCc1ccc2c(c1)c1ccccc1c[n+]2C.[Cl-]", "qualifying.sign": ">", "value.observed": 128}
{"structure.smiles": "C[n+]1cc2ccccc2c2cc(C(F)(F)F)ccc21.[Cl-]", "qualifying.sign": ">", "value.observed": 128}

Origin of measurements: ChEMBL document CHEMBL4052686
